Just for reference, patent US20230183381A1 is where these values come from.

# tested-system: T1, human CD38 extracellular domain (hCD38, recombinant, with AviTag) (human, UniProt P28907 43-300)
# T1 construct: also called recombinant CD38; huCD38
# assay-protocol: ELISA on human CD38 ECD, EC50 class
pEC50: −log10 of the molar value.
measurement-name: pEC50

Examples from the recorded data:
binder | reported
Anti-CD38 HC_S100A (antibody, V domains shown, Alanine variant of h18E4-19 with the parent VL) VH: EVQLLESGGGLVQPGGSLRLSCAASGFSFNNYWIIWIRQAPGKGLEWVAAIYSPSGDIKYYADWAKGRFTVSKDNSKNTVYLQMNSLRAEDTAVYYCARELSGSAYEGYFESWGQGTLVTVSS VL: DIQLTQSPSTLSASVGDRVTITCRSSQSVYGHNWLAWYQQKPGKAPKLLMYRASNLASGVPSRFSGSGSGTEFTLTISSVQPDDFATYYCQGYYSGGSYAFGGGTKVEIK | 10.00 to 10.70
Anti-CD38 HC_F100eA (antibody, V domains shown, Alanine variant of h18E4-19 with the parent VL) VH: EVQLLESGGGLVQPGGSLRLSCAASGFSFNNYWIIWIRQAPGKGLEWVAAIYSPSGDIKYYADWAKGRFTVSKDNSKNTVYLQMNSLRAEDTAVYYCARELSGSSYEGYAESWGQGTLVTVSS VL: DIQLTQSPSTLSASVGDRVTITCRSSQSVYGHNWLAWYQQKPGKAPKLLMYRASNLASGVPSRFSGSGSGTEFTLTISSVQPDDFATYYCQGYYSGGSYAFGGGTKVEIK | 10.00 to 10.70
Anti-CD38 HC_E100bA (antibody, V domains shown, Alanine variant of h18E4-19 with the parent VL) VH: EVQLLESGGGLVQPGGSLRLSCAASGFSFNNYWIIWIRQAPGKGLEWVAAIYSPSGDIKYYADWAKGRFTVSKDNSKNTVYLQMNSLRAEDTAVYYCARELSGSSYAGYFESWGQGTLVTVSS VL: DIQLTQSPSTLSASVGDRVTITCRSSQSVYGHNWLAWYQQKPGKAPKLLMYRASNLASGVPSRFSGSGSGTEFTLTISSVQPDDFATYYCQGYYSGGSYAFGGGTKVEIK | < 9.30
Anti-CD38 HC_Y100dA (antibody, V domains shown, Alanine variant of h18E4-19 with the parent VL) VH: EVQLLESGGGLVQPGGSLRLSCAASGFSFNNYWIIWIRQAPGKGLEWVAAIYSPSGDIKYYADWAKGRFTVSKDNSKNTVYLQMNSLRAEDTAVYYCARELSGSSYEGAFESWGQGTLVTVSS VL: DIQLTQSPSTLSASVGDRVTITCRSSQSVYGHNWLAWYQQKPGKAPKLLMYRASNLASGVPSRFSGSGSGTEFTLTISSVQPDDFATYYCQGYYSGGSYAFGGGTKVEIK | < 9.30

Turning now to a further binder:
Exercise: Supply pEC50 value. Item: Anti-CD38 LC_Y96A (antibody, V domains shown, Alanine variant of h18E4-19 with the parent VH) VH: EVQLLESGGGLVQPGGSLRLSCAASGFSFNNYWIIWIRQAPGKGLEWVAAIYSPSGDIKYYADWAKGRFTVSKDNSKNTVYLQMNSLRAEDTAVYYCARELSGSSYEGYFESWGQGTLVTVSS VL: DIQLTQSPSTLSASVGDRVTITCRSSQSVYGHNWLAWYQQKPGKAPKLLMYRASNLASGVPSRFSGSGSGTEFTLTISSVQPDDFATYYCQGYYSGGSAAFGGGTKVEIK
Solution: 9.30 to 10.00
